System: HCC38 (Breast Carcinoma)
Test: combination Emax (second highest fraction inhibited in the dose matrix, 72 h); higher = more inhibition; extreme values may be limits of the assay
Let's look at some compounds and their measured combination Emax.
The reply should be a number, written without any unit.

# count of solved cases: 3
compound="CN(CCO)CC[C@H](CSc1ccccc1)Nc1ccc(S(=O)(=O)NC(=O)c2ccc(N3CCC([C@@H](O)c4ccccc4-c4ccc(Cl)cc4)CC3)cc2)cc1S(=O)(=O)C(F)(F)F [AZD4320] + CCN(CCO)CCCOc1ccc2c(Nc3cc(CC(=O)Nc4cccc(F)c4)[nH]n3)ncnc2c1 [AZD2811] (first compound max 1 µM, 7x7, partner max 1 µM)" reported_value=0.802
compound="C[C@@H]1COCCN1c1cc(C2([S@](C)(=N)=O)CC2)nc(-c2ccnc3[nH]ccc23)n1 [AZD6738] + C1CC(C1)(C(=O)[O-])C(=O)[O-].N.N.[Pt+2] [Carboplatin] (first compound max 10 µM, 7x7, partner max 10 µM)" reported_value=0.52
compound="Cc1nc(-c2cn3c(n2)-c2ccc(-c4cnn(C(C)(C)C(N)=O)c4)cc2OCC3)n(C(C)C)n1 [Taselisib] + O=C(Nc1ccc2[nH]nc(-c3ccncc3)c2c1)[C@@H]1CCN(CC(=O)N2CCN(c3ccc(-c4ncccn4)cc3)CC2)C1 [SCH772984] (first compound max 10 µM, 7x7, partner max 5 µM)" reported_value=0.355

Consider the additional compound presented here.
# input # lookup: combination Emax of COc1nnc2ccc(N3CCC(c4ccc(OCCN5CCN(C)C(=O)[C@H]5C)cc4)CC3)nn12 [AZD5153] + C[C@@H]1COCCN1C2=NC(=NC(=C2)C3(CC3)[S@](=N)(=O)C)C4=C5C=CNC5=NC=C4 [AZD6738] (first compound max 1 µM, 7x7, partner max 10 µM)
# output 0.486
